Tested on: Fer (mouse)
Test: phosphorylation enrichment, bacterial display (enrichment ratio); higher = better substrate or ligand; peptides without Tyr show the background

{"columns": ["input-sequence", "phosphorylation enrichment"],
 "data": [
  ["VIESSYTSADG [DHCR7_Y382_C380S]", 0.519],
  ["CTTIHYNYRCN [TP53_Y234_M237R]", 0.455],
  ["YGGLRCGYGVL [KRTAP20-2_Y13_Y13C]", 0.473],
  ["FVSSFYHAFSG [ACTN4_Y265_YF]", 0.522],
  ["DSSIRYLQEIY [FGG_Y135]", 0.549],
  ["YSKDIYKRVTG [PANK2_Y405_N404I]", 0.551],
  ["GHLYANDWISI [BEST1_Y227_Y227N]", 0.527]
]}

###

Property: phosphorylation enrichment; scope: individual sequences
Test system: Fer (mouse)
Experiment: phosphorylation enrichment, bacterial display (enrichment ratio); higher = better substrate or ligand; peptides without Tyr show the background

{"columns": ["input-sequence", "phosphorylation enrichment"],
 "data": [
  ["CEAVEYLESKQ [BTK_Y511_M509V]", 0.564],
  ["ADSLRYIYPKL [EIF2B3_Y92]", 0.339],
  ["RMETEYGPSVT [MXRA5_Y2717]", 0.408],
  ["DKMEAYNINET [TEKT4_Y210_D213N]", 0.489],
  ["VATRWYQSPEL [CDKL5_Y177_R178Q]", 0.531],
  ["ITGNGYYFRVF [MYBPC3_Y1135_I1131T]", 0.488],
  ["PMDTFYDSTRG [DYNC2H1_Y2231_YF]", 1.43],
  ["MRAIIYNSSTA [PLEKHA7_Y243_L241I]", 0.528],
  ["VDLIVYLRTNP [TK2_Y181]", 0.432],
  ["FRRITYHNWRH [PDE6B_Y556_YF]", 0.571],
  ["SNKLFYQLEQE [PDPR_Y110_YF]", 0.583],
  ["LIGRRCDDPEV [HSPA9_Y128_Y128C]", 0.666],
  ["PSQRRYLFFFS [PTEN_Y174_V175L_YF]", 0.531],
  ["ADFFDYGHGLS [KHDRBS3_Y304_YF]", 0.433]
]}

###

Property: phosphorylation enrichment; scope: individual sequences
Target: FGFR1 (UniProt P11362)
Sequence (P11362 whole entry, looked up): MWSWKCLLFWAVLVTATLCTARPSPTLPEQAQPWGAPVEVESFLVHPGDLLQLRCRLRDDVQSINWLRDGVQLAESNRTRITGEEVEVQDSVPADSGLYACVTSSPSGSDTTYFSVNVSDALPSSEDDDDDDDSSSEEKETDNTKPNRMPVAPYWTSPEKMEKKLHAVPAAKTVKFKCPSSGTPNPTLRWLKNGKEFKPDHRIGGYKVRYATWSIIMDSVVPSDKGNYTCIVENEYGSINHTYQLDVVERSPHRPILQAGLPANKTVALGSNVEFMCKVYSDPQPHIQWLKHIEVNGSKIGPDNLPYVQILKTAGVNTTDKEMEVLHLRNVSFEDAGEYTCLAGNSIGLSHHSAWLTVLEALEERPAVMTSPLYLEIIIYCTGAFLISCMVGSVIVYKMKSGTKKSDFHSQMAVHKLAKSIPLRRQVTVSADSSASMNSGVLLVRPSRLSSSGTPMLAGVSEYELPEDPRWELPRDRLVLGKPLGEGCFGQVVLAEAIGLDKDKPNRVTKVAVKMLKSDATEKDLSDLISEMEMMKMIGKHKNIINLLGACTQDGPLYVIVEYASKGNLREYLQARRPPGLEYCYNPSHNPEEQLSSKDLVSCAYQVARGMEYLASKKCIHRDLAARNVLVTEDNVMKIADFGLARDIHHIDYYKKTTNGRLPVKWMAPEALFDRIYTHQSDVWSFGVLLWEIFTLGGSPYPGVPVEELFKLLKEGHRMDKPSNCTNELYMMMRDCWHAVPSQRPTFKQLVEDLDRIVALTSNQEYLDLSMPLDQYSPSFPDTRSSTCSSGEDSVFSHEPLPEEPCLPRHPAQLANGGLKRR
Test: phosphorylation enrichment, bacterial display (enrichment ratio); higher = better substrate or ligand; peptides without Tyr show the background
measured-metric: phosphorylation enrichment

{"columns": ["input-sequence", "assayed-system", "reported"],
 "data": [
  ["ARKRKYFKKHE [NFIX_Y40]", "FGFR1 (UniProt P11362)", 0.554],
  ["RMQLPYDSTWE [PDGFRB_Y589_P584R]", "FGFR1 (UniProt P11362)", 0.779],
  ["KDHRDYKYQPR [SOX9_Y172_P170R]", "FGFR1 (UniProt P11362)", 0.482],
  ["RGVVMYTSKDR [ZG16B_Y136_M133V]", "FGFR1 (UniProt P11362)", 0.433],
  ["GIKAAYEAELG [LMNA_Y81]", "FGFR1 (UniProt P11362)", 0.502],
  ["GRTGHYLCNAC [GATA1_Y223_D218G]", "FGFR1 (UniProt P11362)", 0.436],
  ["AEYGLYGAMVR [VSX2_Y222]", "FGFR1 (UniProt P11362)", 0.456],
  ["NRDNTYNRVSE [FGA_Y127]", "FGFR1 (UniProt P11362)", 0.38],
  ["QRRNVYFFSFL [PTEN_Y176_Y174N_YF]", "FGFR1 (UniProt P11362)", 0.562],
  ["NSIGNYFKPWF [DHCR24_Y299_YF]", "FGFR1 (UniProt P11362)", 1.64],
  ["GISDEYHVIQH [GCDH_Y398_R402Q]", "FGFR1 (UniProt P11362)", 6.93],
  ["SRDPFYEMLAA [CYTH1_Y382]", "FGFR1 (UniProt P11362)", 5.1],
  ["WQQQSYLDSEI [CTNNB1_Y30_G34E]", "FGFR1 (UniProt P11362)", 0.397],
  ["CTTIHYNFICN [TP53_Y234_M237I_YF]", "FGFR1 (UniProt P11362)", 0.554]
]}

###

Property: SH2 binding enrichment; scope: individual sequences
Biological target: SHP2-C SH2;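 note: peptide library displayed on the E. coli surface as eCPX fusions, selected cells deep-sequenced, score is each peptide's frequency after selection divided by its frequency in the input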
Test: SH2 binding enrichment of the phosphorylated peptide, bacterial display (enrichment ratio); higher = better substrate or ligand; peptides without Tyr show the background
measured-metric: SH2 binding enrichment

{"columns": ["input-sequence", "measured-metric", "reported"],
 "data": [
  ["RLQEDYDHSFF [ESD_Y258_G257D_YF]", "SH2 binding enrichment", 0.914],
  ["PQAVTYAKVKH [LILRB4_Y360]", "SH2 binding enrichment", 82.1],
  ["IPQEEYTATGL", "SH2 binding enrichment", 0.79],
  ["DPTFGYEDFTR [SESN2_Y323]", "SH2 binding enrichment", 0.771],
  ["SLLKDYSPQLQ [OTC_Y345_T343K]", "SH2 binding enrichment", 0.604],
  ["SVDRDYVLKSA [HTATIP2_Y111_R106S]", "SH2 binding enrichment", 0.927],
  ["TLGPFYPSRLF [CRYAA_Y18]", "SH2 binding enrichment", 1.13],
  ["VYAADYYKLLG [ROR2_Y645]", "SH2 binding enrichment", 0.46],
  ["PMDTFYDSTRG [DYNC2H1_Y2231_YF]", "SH2 binding enrichment", 0.646],
  ["NTDETYCIDNE [TUBB2B_Y200]", "SH2 binding enrichment", 0.781],
  ["RSSNTYTLMDV [ALCAM_Y298_T301M]", "SH2 binding enrichment", 0.7],
  ["LSIWPYLQKID [MFSD8_Y63_M58L]", "SH2 binding enrichment", 1.1],
  ["GLAELYEFKKK [CKAP5_Y1854_YF]", "SH2 binding enrichment", 0.864],
  ["YSMGCYEFSLG [HMGCL_Y198_I200F]", "SH2 binding enrichment", 0.864],
  ["VGTKRYMALEV [ACVRL1_Y375_P378L]", "SH2 binding enrichment", 0.805],
  ["STSYDYCRVPM [BST2_Y8]", "SH2 binding enrichment", 0.937],
  ["LADKPYTFEFF [FXN_Y118_D122Y_YF]", "SH2 binding enrichment", 0.719],
  ["TENAGYFFRIS", "SH2 binding enrichment", 0.593],
  ["PRDGEYFTLQI [TP53_Y327_L323R]", "SH2 binding enrichment", 0.631],
  ["PMQLPYDSRWE [PDGFRA_Y582]", "SH2 binding enrichment", 0.6],
  ["SLNEEYTKNKT [MSH2_Y563]", "SH2 binding enrichment", 0.663],
  ["ADFFDYGHGLS [KHDRBS3_Y304_YF]", "SH2 binding enrichment", 0.741],
  ["SDFFAYSPVQE [H6PD_Y449_R453Q_YF]", "SH2 binding enrichment", 0.639],
  ["KQRKEYMHRRQ [IQGAP2_Y710]", "SH2 binding enrichment", 0.392],
  ["YFVVEYRNQKP [MUC17_Y4332_D4334N]", "SH2 binding enrichment", 3.19],
  ["AKFPFYEKNKK [FOXL2_Y91]", "SH2 binding enrichment", 1.38],
  ["SDMGQYQCLVF [AXL_Y115_T112M]", "SH2 binding enrichment", 0.916],
  ["GGDGSYVSVPS [TNNI3K_Y425]", "SH2 binding enrichment", 0.728],
  ["PFTDPYFDFEI [ZC3H18_Y371_A368T_YF]", "SH2 binding enrichment", 0.815],
  ["KSMSVYCTPNK [ATP2A2_Y497]", "SH2 binding enrichment", 0.686],
  ["DEEPPDRGPFC [SASH1_Y551_Y551D]", "SH2 binding enrichment", 0.694],
  ["CEAVEYLESKQ [BTK_Y511_M509V]", "SH2 binding enrichment", 0.643],
  ["RSRSPYSSRHS [CDK13_Y415]", "SH2 binding enrichment", 0.543],
  ["FRRITYHNWRH [PDE6B_Y556_YF]", "SH2 binding enrichment", 0.456],
  ["HRDDGYMPMSP [IRS1_Y612_T608R]", "SH2 binding enrichment", 0.545],
  ["QKPLDYYRVNL [GALE_Y104]", "SH2 binding enrichment", 0.672],
  ["RMQLPYDSTWE [PDGFRB_Y589_P584R]", "SH2 binding enrichment", 0.747],
  ["VNFGAYINFFK [GLB1_Y488_D491Y_YF]", "SH2 binding enrichment", 0.784],
  ["TTPAVYARVAK [CTRB2_Y246]", "SH2 binding enrichment", 2.3],
  ["DRLASYLEKVR [KRT13_Y118]", "SH2 binding enrichment", 0.676],
  ["DAMQTYNGNDE [TSPAN7_Y131]", "SH2 binding enrichment", 0.613],
  ["KDQGTYEDYVE [MYL6_Y86]", "SH2 binding enrichment", 0.553],
  ["PADCRYFTFPQ [GAMT_Y222_A224T_YF]", "SH2 binding enrichment", 1.78],
  ["LPSKDYAEVRR [HP_Y272_G276R]", "SH2 binding enrichment", 1.31],
  ["SLLVVYPWTQR [HBB_Y36_R31S]", "SH2 binding enrichment", 1.5],
  ["LLANAYIYVVQ [L1CAM_Y418]", "SH2 binding enrichment", 0.787],
  ["DWRQEYVLNES [TGM1_Y267]", "SH2 binding enrichment", 0.702],
  ["ADKAAYLQSMN [MYH2_Y389_L393M]", "SH2 binding enrichment", 0.525],
  ["LNCIYYKDQTG [RS1_Y166_W163C]", "SH2 binding enrichment", 0.743],
  ["HLVLNYGVCVC [JAK2_Y613]", "SH2 binding enrichment", 0.795],
  ["LVMFISAIFGM [SCN1A_Y1684_Y1684S]", "SH2 binding enrichment", 0.842],
  ["SWSTSYSGFRC [NKAPL_Y91_Y96C_YF]", "SH2 binding enrichment", 0.57],
  ["GAAMLYYPSVS [GPR143_Y177]", "SH2 binding enrichment", 0.608],
  ["CTTIHYIFMCN [TP53_Y234_N235I_YF]", "SH2 binding enrichment", 1.1],
  ["RRAKGYPINLF [ITGB2_Y125_D128N_YF]", "SH2 binding enrichment", 0.397],
  ["SSSGGYGGGFG [KRT19_Y61_A60G_YF]", "SH2 binding enrichment", 0.481],
  ["EEQKKYYNAVK [SCN5A_Y1494_M1498V]", "SH2 binding enrichment", 0.878],
  ["CTTIHYNFMRN [TP53_Y234_C238R_YF]", "SH2 binding enrichment", 0.896]
]}
